The reported numbers originate from patent US20230037815A1.

- system: cynomolgus CD19 (cynomolgus)
- measurement.description: Octet HTX (ForteBio), IgG on AHC sensor, 1:1 fit
measured.parameter: Kd (nM)
Answers are plain numbers, in nM.

Some binders with known Kd results, for comparison:
binder	Kd, nM
CNG-CD19-702 (antibody, V domains shown) VH: QVQLQESGPGLVKPSQTLSLTCTVSGGSTSTSGMGVSWIRQHPGKGLEWIGHIWWDDDKRYNPVLKSRVTISVDTSKNQFSLKLSSVTAADTAVYYCARMELWSYYFDPWGQGTLVTVSS VL: EIVLTQSPATLSLSPGERATLSCSASSSVSYMHWYQQKPGQAPRLLIYDTSKLASGIPARFSGSGSGTDFTLTISSLEPEDFAVYYCFQGSVYPFTFGQGTKLEIK	1.3
CNG-CD19-703 (antibody, V domains shown) VH: QVQLQESGPGLVKPSQTLSLTCTVSGGSISTSTMGVGWIRQHPGKGLEWIGFIWWDDDKRYNPNLKSRVTMSVDTSKNQFSLKLSSVTAADTAVYYCARMELWSYYFEYWGQGTLVTVSS VL: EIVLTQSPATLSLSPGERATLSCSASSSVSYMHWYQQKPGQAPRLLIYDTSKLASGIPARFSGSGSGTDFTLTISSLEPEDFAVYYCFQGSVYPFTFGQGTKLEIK	2.54

For every item in the list below, what is its measured Kd?
1. CNG-CD19-1 (antibody, V domains shown) VH: QVQLVQSGAEVKKPGASVKVSCKASGYTFTDYIMHWVRQAPGQGLEWMGYINPYNDGSKYTEKFQGRVTMTSDTSISTAYMELSRLRSDDTAVYYCARGTYYYGPQLFDYWGQGTTVTVSS VL: DIVMTQTPLSLSVTPGQPASISCKSSQSLETSTGTTYLNWYLQKPGQSPQLLIYRVSKRFSGVPDRFSGSGSGTDFTLKISRVEAEDVGVYYCLQLLEDPYTFGQGTKLEIK
2. CNG-CD19-110 (antibody, V domains shown) VH: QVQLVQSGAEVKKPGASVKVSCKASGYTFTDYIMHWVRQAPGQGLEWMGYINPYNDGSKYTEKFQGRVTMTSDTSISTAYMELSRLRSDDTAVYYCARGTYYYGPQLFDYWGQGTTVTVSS VL: DIVMTQTPLSLSVTPGQPASISCKSSQSLETSTGTTYLNWYLQKPGQSPQLLIYRSSKRFSGVPDRFSGSGSGTDFTLKISRVEAEDVGVYYCLQLLEDPPTFGQGTKLEIK

1: 9.39; 2: 6.17

Sample CNG-CD19-7 (antibody, V domains shown) VH: QVQLQESGPGLVKPSQTLSLTCTVSGGSISTSGMGVGWIRQHPGKGLEWIGHIWWDDDKRYNPALKSRVTISVDTSKNQFSLKLSSVTAADTAVYYCARMELWSYYFDYWGQGTLVTVSS VL: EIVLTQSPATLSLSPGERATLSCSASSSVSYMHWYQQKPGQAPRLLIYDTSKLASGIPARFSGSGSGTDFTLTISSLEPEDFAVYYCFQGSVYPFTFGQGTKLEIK — what was its Kd?
8.43
